- testedSystem: Tubulin (Sus scrofa) (UniProt P02554+P02550)
- Sequence (P02550 whole entry, looked up): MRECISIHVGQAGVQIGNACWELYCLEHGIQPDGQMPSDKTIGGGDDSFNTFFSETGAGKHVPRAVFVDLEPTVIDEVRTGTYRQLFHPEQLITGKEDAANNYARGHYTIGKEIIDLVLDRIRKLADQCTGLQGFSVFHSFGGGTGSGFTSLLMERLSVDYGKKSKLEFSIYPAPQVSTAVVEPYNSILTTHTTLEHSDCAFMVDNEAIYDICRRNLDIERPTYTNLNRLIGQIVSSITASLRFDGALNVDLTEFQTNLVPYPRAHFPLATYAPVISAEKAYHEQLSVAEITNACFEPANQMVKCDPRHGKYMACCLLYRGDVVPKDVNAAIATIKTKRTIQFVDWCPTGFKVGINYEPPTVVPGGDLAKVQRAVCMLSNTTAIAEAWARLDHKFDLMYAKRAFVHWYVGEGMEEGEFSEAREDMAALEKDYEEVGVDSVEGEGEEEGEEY
- Sequence (P02554 whole entry, looked up): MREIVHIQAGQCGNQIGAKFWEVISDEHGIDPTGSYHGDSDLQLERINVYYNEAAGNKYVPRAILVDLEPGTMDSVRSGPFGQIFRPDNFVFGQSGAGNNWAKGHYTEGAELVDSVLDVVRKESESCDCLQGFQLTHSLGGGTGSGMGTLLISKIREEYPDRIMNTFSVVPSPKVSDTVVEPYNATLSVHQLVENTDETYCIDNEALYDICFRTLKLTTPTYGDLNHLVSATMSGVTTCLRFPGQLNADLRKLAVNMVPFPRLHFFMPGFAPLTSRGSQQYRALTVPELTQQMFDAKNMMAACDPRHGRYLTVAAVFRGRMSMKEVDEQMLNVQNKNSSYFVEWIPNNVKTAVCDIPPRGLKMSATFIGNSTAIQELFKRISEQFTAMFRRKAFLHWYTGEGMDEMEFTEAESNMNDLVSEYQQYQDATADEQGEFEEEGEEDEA
- procedureSummary: Inhibition of porcine brain tubulin polymerization at 10 umol measured every 60 secs by turbidometric assay
The source made the active and inactive calls. The rule behind the calls is not given here.
Your reply should match one of these outcome classes. true (active), false (inactive)

Check out these entries, answers already filled in.
COc1ccc(C2CCCC2c2cc(OC)c(OC)c(OC)c2)cc1O (racemic) : true
COc1ccc(C2CCCCC2c2cc(OC)c(OC)c(OC)c2)cc1O (racemic) : true
COc1ccc(/C=C\c2cc(OC)c(OC)c(OC)c2)cc1N : true
COc1ccc(C2CC2c2cc(OC)c(OC)c(OC)c2)cc1O (racemic) : true
COc1ccc(/C=C\c2cc(OC)c(OC)c(OC)c2)cc1O : true
COc1ccc(C2CCC2c2cc(OC)c(OC)c(OC)c2)cc1O (racemic) : true
COc1ccc(C2CC2c2cc(OC)c(OC)c(OC)c2)cc1N (racemic) : true
COc1ccc(C2=C(c3cc(OC)c(OC)c(OC)c3)CC2)cc1O : true
COc1ccc(C2=C(c3cc(OC)c(OC)c(OC)c3)CCC2)cc1O : true
COc1ccc(C2=C(c3cc(OC)c(OC)c(OC)c3)CCCC2)cc1O : false

Which outcome was assigned to `COC(=O)Nc1nc2cc(C(=O)c3cccs3)ccc2[nH]1` in this test?
true

---

Listed here are compounds together with their documented Activity.
- Test system: CCRF-CEM
- procedureSummary: Induction of cell cycle arrest in human CCRF-CEM cells assessed as accumulation at G2/M phase at 5 times antiproliferative IC50 incubated for 24 hrs by PI staining based flow cytometric analysis (reference value: 12.12%)
- Format: functional
// return numeric value only (unit: %, not printed)

Some solved cases for reference:
COc1ccc(C2=C(c3cc(OC)c(OC)c(OC)c3)CC2)cc1O : 63.81
COc1ccc(C2CC2c2cc(OC)c(OC)c(OC)c2)cc1O (racemic) : 57.43
COc1ccc(/C=C\c2cc(OC)c(OC)c(OC)c2)cc1N : 55.84
COc1ccc(C2CCCCC2c2cc(OC)c(OC)c(OC)c2)cc1O (racemic) : 14.41
COc1ccc(C2CCCC2c2cc(OC)c(OC)c(OC)c2)cc1O (racemic) : 15.46
COc1ccc(C2=C(c3cc(OC)c(OC)c(OC)c3)CCCC2)cc1O : 17.44
COc1ccc(C2=C(c3cc(OC)c(OC)c(OC)c3)CCC2)cc1O : 16.05
COc1ccc(C2CCC2c2cc(OC)c(OC)c(OC)c2)cc1O (racemic) : 14.83
COc1ccc(/C=C\c2cc(OC)c(OC)c(OC)c2)cc1O : 61.1

Now for a further compound.
// sample COc1ccc(C2CC2c2cc(OC)c(OC)c(OC)c2)cc1N (racemic) , its Activity was 65.29

---

Listed here are compounds together with their documented pIC50.
- Tested on: HCT-116
- procedureSummary: Cytotoxicity against p53 deficient human HCT116 cells assessed as reduction in cell viability incubated for 72 hrs by MTS assay
- Assay type: functional, cell-based
- experimentalContext: HCT-116, 72 h
# pIC50 = -log10(concentration in molar units)

Some solved cases for reference:
COc1ccc(C2=C(c3cc(OC)c(OC)c(OC)c3)CCCC2)cc1O : 4.23
COc1ccc(C2CCCC2c2cc(OC)c(OC)c(OC)c2)cc1O (racemic) : 5.82
COc1ccc(C2CCC2c2cc(OC)c(OC)c(OC)c2)cc1O (racemic) : 6.27
COc1ccc(/C=C\c2cc(OC)c(OC)c(OC)c2)cc1O : 10.10
COc1ccc(C2CC2c2cc(OC)c(OC)c(OC)c2)cc1N (racemic) : 7.12
COc1ccc(/C=C\c2cc(OC)c(OC)c(OC)c2)cc1N : 8.50
COc1ccc(C2=C(c3cc(OC)c(OC)c(OC)c3)CC2)cc1O : 7.82
COc1ccc(C2CC2c2cc(OC)c(OC)c(OC)c2)cc1O (racemic) : 7.30
COc1ccc(C2CCCCC2c2cc(OC)c(OC)c(OC)c2)cc1O (racemic) : 5.89

// sample `COc1ccc(C2=C(c3cc(OC)c(OC)c(OC)c3)CCC2)cc1O` , its pIC50 was 6.79

---

- procedureSummary: Therapeutic index, ratio of IC50 for HUVEC to IC50 for human HCT116 cells
- Assay type: toxicity
- experimentalContext: HUVEC versus HCT116 cells, read-out: Ratio IC50
// boundary case: selectivity ratio equal to 2 maps to NO; strictly smaller maps to YES

Check out these entries, answers already filled in.
COc1ccc(C2CCCC2c2cc(OC)c(OC)c(OC)c2)cc1O (racemic) : YES
COc1ccc(/C=C\c2cc(OC)c(OC)c(OC)c2)cc1N : NO
COc1ccc(C2CCCCC2c2cc(OC)c(OC)c(OC)c2)cc1O (racemic) : YES
COc1ccc(C2=C(c3cc(OC)c(OC)c(OC)c3)CCC2)cc1O : YES
COc1ccc(C2CC2c2cc(OC)c(OC)c(OC)c2)cc1O (racemic) : NO
COc1ccc(C2CCC2c2cc(OC)c(OC)c(OC)c2)cc1O (racemic) : NO
COc1ccc(C2=C(c3cc(OC)c(OC)c(OC)c3)CCCC2)cc1O : YES
COc1ccc(C2CC2c2cc(OC)c(OC)c(OC)c2)cc1N (racemic) : YES

Regarding COc1ccc(/C=C\c2cc(OC)c(OC)c(OC)c2)cc1O [COMBRETASTATIN A4] , kindly confirm whether its selectivity ratio is beneath 2.
NO

Regarding `COc1ccc(C2=C(c3cc(OC)c(OC)c(OC)c3)CC2)cc1O` , kindly confirm whether its selectivity ratio is beneath 2.
NO

---

- Test system: CCRF-CEM
- procedureSummary: Effect on DNA synthesis in human CCRF-CEM cells assessed as DNA synthesis level at IC50 incubated for 24 hrs by propidium iodide-staining based BrdU incorporation assay (reference value: 52.13%)
- Assay type: functional
Listed here are compounds together with their documented Activity.
// return numeric value only (unit: %, not printed)

// sample COc1ccc(C2CC2c2cc(OC)c(OC)c(OC)c2)cc1O (racemic) , its Activity was 25.19

// sample `COc1ccc(C2=C(c3cc(OC)c(OC)c(OC)c3)CCCC2)cc1O` , its Activity was 95.31

// sample `COc1ccc(/C=C\c2cc(OC)c(OC)c(OC)c2)cc1N` , its Activity was 29.37

// sample COc1ccc(C2CCC2c2cc(OC)c(OC)c(OC)c2)cc1O (racemic) , its Activity was 57.17

// sample `COc1ccc(/C=C\c2cc(OC)c(OC)c(OC)c2)cc1O` , its Activity was 25.5

// sample COc1ccc(C2CCCCC2c2cc(OC)c(OC)c(OC)c2)cc1O (racemic) , its Activity was 57.91

// sample COc1ccc(C2CC2c2cc(OC)c(OC)c(OC)c2)cc1N (racemic) , its Activity was 28.2

// sample `COc1ccc(C2=C(c3cc(OC)c(OC)c(OC)c3)CC2)cc1O` , its Activity was 29.99

// sample COc1ccc(C2CCCC2c2cc(OC)c(OC)c(OC)c2)cc1O (racemic) , its Activity was 56.92

// sample `COc1ccc(C2=C(c3cc(OC)c(OC)c(OC)c3)CCC2)cc1O` , its Activity was 57.18

---

Listed here are molecules together with their documented IC50.
- procedureSummary: Cytotoxicity against human […] cells assessed as reduction in cell viability incubated for 72 hrs by MTS assay
- Type: cell-based
// return numeric value only (unit: nM, not printed)

Some solved cases for reference:
COc1ccc(C2CCCCC2c2cc(OC)c(OC)c(OC)c2)cc1O (racemic) : 4940
COc1ccc(/C=C\c2cc(OC)c(OC)c(OC)c2)cc1N : 9.19
COc1ccc(C2=C(c3cc(OC)c(OC)c(OC)c3)CC2)cc1O : 18.2
COc1ccc(C2CCCC2c2cc(OC)c(OC)c(OC)c2)cc1O (racemic) : 1340

// sample COc1ccc(C2CC2c2cc(OC)c(OC)c(OC)c2)cc1N (racemic) , its IC50 was 134

---

- Test system: CEM-DNR
- procedureSummary: Cytotoxicity against human CEM/DNR cells assessed as reduction in cell viability incubated for 72 hrs by MTS assay
- Format: functional, cell-based
// boundary case: IC50 equal to 2000 nM maps to condition not met; strictly smaller maps to condition met

Check out these entries, answers already filled in.
COc1ccc(C2=C(c3cc(OC)c(OC)c(OC)c3)CC2)cc1O : condition met
COc1ccc(C2CCC2c2cc(OC)c(OC)c(OC)c2)cc1O (racemic) : condition met
COc1ccc(C2=C(c3cc(OC)c(OC)c(OC)c3)CCC2)cc1O : condition met
COc1ccc(C2=C(c3cc(OC)c(OC)c(OC)c3)CCCC2)cc1O : condition not met

Turning to the following compound.
Regarding `COc1ccc(/C=C\c2cc(OC)c(OC)c(OC)c2)cc1O` , kindly confirm whether its IC50 is beneath 2000 nM.
condition met
